tested on: human benign prostate cell lines RWPE-1; assay: MTT cytotoxicity of 12a, RWPE-1 cells, 48 h; assay type: cell-based; settings: RWPE-1, 48 h, read-out: IC50 (μM)/48 h RWPE-1
quantity-measured: IC50
I'd appreciate it if you wrote the number followed by its unit.

Lab note: measured IC50 of COC1OC(=O)C(Cl)=C1N1CCN(CCCCCC[C@H]2CN([C@@H]3OC4O[C@@]5(C)CC[C@H]6[C@H](C)CC[C@@H]([C@H]3C)[C@@]46OO5)CCS2(=O)=O)CC1 (stereo partly shown) [Hybrid 12a] was 100 µM

* * *

tested on: human liver cancer cell lines SMMC-7721; assay: MTT cytotoxicity, SMMC-7721 cells, 24 h; type: cell-based; settings: SMMC-7721, 24 h, read-out: IC50 (μM)/24 h SMMC-7721
quantity-measured: IC50 (µM)
Number only, in µM; omit the unit.

molecule	assay-target	quantity-measured	test-result
CC(C)[C@@H]1CC[C@@H](C)C[C@@H]1O[C@H]1OC(=O)C(Cl)=C1N1CCN(CCCCCC[C@H]2CN([C@@H]3OC4O[C@@]5(C)CC[C@H]6[C@H](C)CC[C@@H]([C@H]3C)[C@@]46OO5)CCS2(=O)=O)CC1 (stereo partly drawn) [Hybrid 12b]	human liver cancer cell lines SMMC-7721	IC50	320
C[C@H]1[C@H](N2CCS(=O)(=O)[C@@H](CCCCCCN3CCN(C4=C(Cl)C(=O)OC4O[C@H]4CC5CCC4(C)C5(C)C)CC3)C2)O[C@@H]2O[C@@]3(C)CC[C@H]4[C@H](C)CC[C@@H]1[C@@]24OO3 (stereo partly drawn) [Hybrid 12c]	human liver cancer cell lines SMMC-7721	IC50	70
COC1OC(=O)C(Br)=C1N1CCN(CCCCCC[C@H]2CN([C@@H]3OC4O[C@@]5(C)CC[C@H]6[C@H](C)CC[C@@H]([C@H]3C)[C@@]46OO5)CCS2(=O)=O)CC1 (stereo partly drawn) [Hybrid 12d]	human liver cancer cell lines SMMC-7721	IC50	340
CC[C@]1(O)C[C@H]2CN(CCc3c([nH]c4ccccc34)[C@@](C(=O)OC)(c3cc4c(cc3OC)N(C=O)[C@H]3[C@@](O)(C(=O)OC)[C@H](OC(C)=O)[C@]5(CC)C=CCN6CC[C@]43[C@@H]65)C2)C1 [VCR, vincristine, reference compound]	human liver cancer cell lines SMMC-7721	IC50	270

Now consider the entry below.
Lab note: measured IC50 of COC1OC(=O)C(Cl)=C1N1CCN(CCCCCC[C@H]2CN([C@@H]3OC4O[C@@]5(C)CC[C@H]6[C@H](C)CC[C@@H]([C@H]3C)[C@@]46OO5)CCS2(=O)=O)CC1 (stereo partly drawn) [Hybrid 12a] was 30

* * *

tested on: human liver cancer cell lines SMMC-7721; test: MTT cytotoxicity, SMMC-7721 cells, 24 h; format: cell-based; conditions: SMMC-7721, 24 h, read-out: IC50 (μM)/24 h SMMC-7721
List of IC50 values.
Number only, in µM; omit the unit.

molecule	unit-descriptor	IC50
C[C@H]1[C@H](N2CCS(=O)(=O)[C@@H](CCCCCCN3CCN(C4=C(Br)C(=O)O[C@@H]4O[C@H]4CC5CCC4(C)C5(C)C)CC3)C2)O[C@@H]2O[C@@]3(C)CC[C@H]4[C@H](C)CC[C@@H]1[C@@]24OO3 [Hybrid 12f]	µM	220

Lab note: measured IC50 of CC(C)[C@@H]1CC[C@@H](C)C[C@@H]1O[C@H]1OC(=O)C(Br)=C1N1CCN(CCCCCC[C@H]2CN([C@@H]3OC4O[C@@]5(C)CC[C@H]6[C@H](C)CC[C@@H]([C@H]3C)[C@@]46OO5)CCS2(=O)=O)CC1 (some centres unmarked) [Hybrid 12e] was 210
